experiment summary: NCI Yeast Anticancer Drug Screen. Data for the mlh1 rad18 strain (AID 175)
condition description: S. cerevisiae mlh1 rad18 strain growth inhibition; at 50.0 µM; hits give high values
The panel holds about 79,000 compounds, 15% with a hit somewhere; the sample as a whole holds those more often.
In this section we review reported growth inhibition values for a set of compounds.
readout: growth inhibition (%)

compound=CCCCCCCCCCCNc1ncnc2[nH]ncc12 number=9.8
compound=O=C(Nc1ccc(Cl)c(Cl)c1)C(Cl)Cl number=10.3
compound=Cc1ccc(S(=O)(=O)OCCN(CCO)c2cn(C(c3ccccc3)(c3ccccc3)c3ccccc3)c(=O)n(C(c3ccccc3)(c3ccccc3)c3ccccc3)c2=O)cc1 number=24.3
compound=Oc1cccnc1CN1CCOCC1 number=6.95
compound=CCC(=O)NN(C(C)=O)c1ccccc1 number=18.9
compound=Clc1ccccc1C(Nc1nc2ccccc2s1)Nc1nc2ccccc2s1 number=17.4
compound=CC(C)(C)c1cc2c3c(c1)C(C(F)(F)F)(C(F)(F)F)OS3(=O)(O)OC2(C(F)(F)F)C(F)(F)F number=39
compound=CCOc1c(F)ccc(F)c1-c1c(F)ccc(F)c1OCC number=-5.2
compound=CSc1ccc(NC(=O)Nc2ccc(Nc3ccccc3)cc2)cc1 number=23.3
compound=Cc1cc(C)cc(Sc2c([N+](=O)[O-])ncn2C)c1 number=39.7
compound=NC(=O)c1cnn(CCO)c1N number=12.6
compound=COC(=O)c1cc(=O)[nH]c(=O)[nH]1 number=-15.9
compound="CCC(c1ccc(OCc2ccccc2)cc1)c1cc2c(cc1OCCO)OCO2 (configuration not stated)" number=57
compound="CC1=C(C[Si](C)(C)C)CC(CO[Si](C)(C)C(C)(C)C)C2C(=O)N(C(=O)c3ccccc3)C(Cc3ccccc3)C12 (configuration not stated)" number=23.4
compound=COc1cc(OC)c2cnc(Cl)cc2c1 number=6.6
compound=COc1ccc(CCNC(=O)CC2CCN(Cc3ccccc3)CC2)cc1OC number=-1.5
compound=Oc1ccc(O)c(-c2ccccc2)c1 number=44

* * *

experiment summary: NCI Yeast Anticancer Drug Screen. Data for the cln2 rad14 strain (AID 165);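 also: 0% = growth equal to vehicle treated cultures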
condition description: S. cerevisiae cln2 rad14 strain, at 50.0 µM, hits give high values
The panel holds about 79,000 compounds, 15% with a hit somewhere; the sample as a whole holds those more often.
In this section we review reported growth inhibition values for a set of compounds.
readout: growth inhibition (%)

compound=Cc1ccc(N(C(=O)CC(=O)NN)C(=O)c2ccccc2Cl)cc1 units_of_measure=% number=27
compound=NC(=O)Nc1cccc(C(=O)O)c1C(=O)O units_of_measure=% number=-33.6
compound=CCCCN1C[C@H](OC(=O)CCC)[C@@H](OC(=O)CCC)[C@H](OC(=O)CCC)[C@H]1COC(=O)CCC units_of_measure=% number=-5.3
compound="CC1CCCN(C(=O)Nc2ccccc2)C1 (configuration not stated)" units_of_measure=% number=10.4
compound=[Cl][Pt+2][Cl].[NH-]c1ccc(CC(=O)O)cc1[NH-] units_of_measure=% number=39.8
compound=C/C(CC(C)C)=N/NC(N)=S units_of_measure=% number=-23.1
compound=O=c1cc(-c2ccc(O)cc2)oc2cc(O)cc(O)c12 units_of_measure=% number=-43.5
compound="CCOP(=O)(OCC)C(NC(=O)C(C(F)(F)F)C(F)(F)F)c1ccccc1 (configuration not stated)" units_of_measure=% number=24.4
compound=Cc1ccc(S(=O)(=O)CCN2CCCC2)cc1 units_of_measure=% number=-47.2
compound="Cc1c(Cl)ccc2c1NC(=O)C2(O)CC(=O)c1ccc(Cl)cc1Cl (configuration not stated)" units_of_measure=% number=-13.5
compound="CC1=NOC(C)(O)/C1=N/O (configuration not stated)" units_of_measure=% number=-2.75
compound=COc1ccc(Cc2ccc(OC)c3ccccc23)c2ccccc12 units_of_measure=% number=-30.9
compound=c1ccc2cc(N=Nc3cccc4ccccc34)ccc2c1 units_of_measure=% number=-19
compound=CN(C)C(=S)N(C)C units_of_measure=% number=0.45
compound=Cc1cc(OCc2ccc3ccccc3c2)ccc1Nc1cc(=O)[nH]c(=O)[nH]1 units_of_measure=% number=-4.55
compound=c1ccc2c(c1)SCCCSCCCS2 units_of_measure=% number=-9.4
compound=CS(=O)(=O)OCCN1C(=O)CNC1=O units_of_measure=% number=-27.8
compound=CCN(CC)/[N+]([O-])=N/O units_of_measure=% number=-0.6
compound=CSc1nc(C)cc(N(C)c2ccccc2)n1 units_of_measure=% number=-8.9
compound=Cc1ccc(S(=O)(=O)N/N=C(\C(=N/OCc2ccccc2)c2ccccc2)c2ccccc2)cc1 units_of_measure=% number=14.8
compound=CCOC(=O)C1=C(C(=O)c2ccc(OC)cc2)C(c2cccc([N+](=O)[O-])c2)C(C(=O)c2ccc(OC)cc2)=C(C(=O)OCC)N1 units_of_measure=% number=-2.85
compound=N#C/C(=C/c1cccnc1)C(=O)c1ccccc1 units_of_measure=% number=12.6
compound="CCOC(=O)C12CCCC1(O)N(NC(=O)OC(C)(C)C)C(C)=C2C(=O)OC (configuration not stated)" units_of_measure=% number=-43.2
compound=N#C/C(=C\c1c(Cl)cccc1Cl)c1ccc([N+](=O)[O-])cc1 units_of_measure=% number=-4.45
compound=CCc1ccc2[nH]c(C(=O)O)cc2c1 units_of_measure=% number=-11.8
compound=COc1ccc(S(=O)(=O)N/N=C/c2cc(I)cc([N+](=O)[O-])c2O)cc1OC units_of_measure=% number=4.95
compound=CC(C)N(C(=O)C12CC3CC(CC(C3)C1)C2)C(C)C units_of_measure=% number=13.2
compound="COC(=O)NC(c1ccccc1)C(C)I (configuration not stated)" units_of_measure=% number=-9.65
compound=CN(C=O)c1ccccc1 units_of_measure=% number=11.7
compound=CCOC(=O)Cn1c(=O)c2nc(SC)sc2n(CC)c1=S units_of_measure=% number=-6.55
compound=CCC#CCN(CCC)CCC units_of_measure=% number=-41.1
compound=COc1ccccc1NC(=O)CCl units_of_measure=% number=18.8
compound="CC(C)CCCC(C)C1CCC2C3CCC4CC5(C)C(CC4(C)C3CCC12C)C(=O)C5(Cl)Cl (configuration not stated)" units_of_measure=% number=0
compound=CCCCCCCCCc1ccc(COCCCC)cc1 units_of_measure=% number=50.1
compound=C=CCNC(=O)/C=C/C(=O)O units_of_measure=% number=4.45
compound=CSc1ccc(NC(=O)Nc2ccc(Nc3ccccc3)cc2)cc1 units_of_measure=% number=-11.9
compound=COC(=O)c1cc(=O)[nH]c(=O)[nH]1 units_of_measure=% number=9.45
compound=CC(C)S(=O)(=O)C(C)C units_of_measure=% number=11.7
compound="N#CC1CCCC/C1=N/NC(N)=O (configuration not stated)" units_of_measure=% number=-6.05
compound="COc1cc(C2c3cc4c(cc3OC(N3CCNCC3)C2C)OCO4)cc(OC)c1OC (configuration not stated)" units_of_measure=% number=-22.7
compound="CC(CCc1ccccc1)N(C)C(=O)CNC(=O)CN1C(=O)c2ccccc2C1=O (configuration not stated)" units_of_measure=% number=-1.25
compound=O=C1NC(=O)c2ccc(Br)c3cccc1c23 units_of_measure=% number=21.6

* * *

experiment summary: NCI Yeast Anticancer Drug Screen. Data for the sgs1 mgt1 strain (AID 161);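 also: 0% = growth of cultures given vehicle only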
condition description: S. cerevisiae sgs1 mgt1 strain, at 50.0 µM
Compounds without any hit were thinned out: in the full panel of roughly 79,000, 15% have a hit. Activity calls are given as the source filed them. No stated cut-off is given here; in the data, active means growth inhibition above about 70%; inactive means the rest.
Possible outcomes: T = active, F = inactive

compound=Cc1cccc(/C=C/c2csnn2)n1 cat=F
compound=NNc1ncnc2cccc(Cl)c12 cat=F
compound=CCn1c(C)nc([N+](=O)[O-])c1Sc1ncc[nH]1 cat=F
compound="CC1CN(C(=O)C2CCCN(CCc3ccccc3)C2)CC(C)O1 (stereo unspecified)" cat=F
compound=Cc1cc(C)c(C(=O)O)c(C)c1Br cat=F
compound=Oc1ccc2ccc3[nH]cnc3c2c1 cat=F
compound="O=C1CCCCCCCCCCC1Cc1cc(O)c(CC2CCCCCCCCCCC2=O)cc1O (stereo unspecified)" cat=F
compound="Clc1nc(Cl)c2ncn(C3CCCCO3)c2n1 (stereo unspecified)" cat=F
compound=Cc1cc(O)c(/C=N/C(=S)NCCc2ccccc2)c(=O)o1 cat=F
compound=CCOC(=O)Nc1ccc([N+](=O)[O-])cc1[N+](=O)[O-] cat=F
compound=COc1ccc([N+](=O)[O-])c(OC)c1 cat=F
compound=O=S(=O)(O)c1ccc2cc(O)ccc2c1 cat=F
compound=CC(=O)Oc1ccc(OC(C)=O)c2c(OC(C)=O)ccc(OC(C)=O)c12 cat=F
compound=C[C@]12CC[C@@H]3c4ccc(OP(=O)(O)O)cc4CC[C@H]3[C@@H]1CCC2=O cat=F
compound=COc1cc(/C(=C\c2ccccc2N)C(=O)O)cc(Br)c1OC cat=F
compound="CN(N=O)C(=O)NC(CCCCNC(=O)OCc1ccccc1)C(=O)OCc1ccccc1 (stereo unspecified)" cat=F
compound=N/C([S-])=N/N=c1\c(O)c(O)\c1=N/N=C(/N)[S-].[Cu+2] cat=F
compound=C=CCN1C(=O)c2ccccc2C1=O cat=F
compound=Cc1cnc(N)s1 cat=F
compound=Nc1nc(N)nc(-c2cc(Br)ccc2N)n1 cat=F
compound="CC1CCC(=O)N1c1ccc(N)cc1 (stereo unspecified)" cat=F
compound=NC(=O)N1CCCC1=O cat=F
compound=O=C(NCCc1c[nH]c2ccccc12)C1CCCCC1 cat=F
compound="O=C1c2ccccc2C(c2ccccc2)C1c1ccccc1 (stereo unspecified)" cat=F
compound="CC(=O)C(C(=O)C(=O)Nc1cc(Cl)c(Cl)cc1Cl)c1csc(N)n1 (stereo unspecified)" cat=F
compound=CCCNc1nc(C)nc2[nH]c(Cc3ccccc3)c(C)c12 cat=F
compound=CC(=O)Oc1c(Cl)c(Cl)c(C#N)c(Cl)c1C#N cat=F
compound="OC(CC1CCCC(CC(O)c2ccccc2)N1CCc1ccccc1)c1ccccc1 (stereo unspecified)" cat=F
compound="CCOC(=O)c1ccc(N2C(=O)C(Cl)(c3ccccc3)C2c2ccco2)cc1 (stereo unspecified)" cat=F
compound=CCc1cn(O)c(C)cc1=N cat=F
compound=COC1=C(OC)C(=O)C(Sc2ccc3ccccc3c2)=C(Cl)C1=O cat=T
